- Tested Target: T1, human BCMA expressed on cells (human, UniProt Q02223 1-184)
- T1 construct: the cell line is named under assay; also called wildtype human BCMA
- T1 sequence: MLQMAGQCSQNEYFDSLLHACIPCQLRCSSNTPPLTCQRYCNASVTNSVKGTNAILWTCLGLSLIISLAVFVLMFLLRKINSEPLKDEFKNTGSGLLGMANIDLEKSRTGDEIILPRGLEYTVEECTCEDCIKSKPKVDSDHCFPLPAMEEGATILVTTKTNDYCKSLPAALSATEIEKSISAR
- Protocol Summary: flow cytometry, fixed RPMI 8226 cells (BCMA+, TACI+: the cells carry both targets)
Property Measured: EC50 (nM)
Give bare numbers, in nM.

get_value(item= 1C8-6A3 hIgG1 (antibody, V domains shown, also called [94]; hu1C8) VH: QVQLVQSGAEVKKPGASVKVSCKASGYTFTNYVMHWVKQKPGQGLEWMGYILPYNDGTKYAQKFQGKVTMTSDKSTSTVYMELSSLTSEDTAVYYCARYDYEGSFDYWGQGTLVTVSS VL: DIQMTQSPSSLSASVGDRVTITCRASQDISNYLNWYQQKPGKAPKLLMCYTSRLHSGVPSRFSGSGSGTDFTLTISSLEQEDFATYYCQQGNTFPPTFGGGTKVEIKR , readout=EC50) returns 0.238
